Tested on: 9L glioma cells
experimentNotes: In vitro uptake studies in 9L cells
Assay type: cell-based
cond: 9L cells, result in words
valueKind: uptake in 9L cells

* N[C@@H](Cc1ccc(OCC[18F])cc1)C(=O)NCC(=O)O [FET-Gly ([^18F]2)] | negligible uptake
* C[C@H](NC(=O)[C@@H](N)Cc1ccc(OCC[18F])cc1)C(=O)O [FET-Ala ([^18F]3)] | negligible uptake
* CC(=O)N[C@@H](Cc1ccc(OCC[18F])cc1)C(=O)O [AcFET ([^18F]4)] | negligible uptake

----------
Give measured maximum tumor-to-muscle ratio for each item. Keep answers brief.
System: 9L tumors
experimentNotes: Dynamic small animal PET imaging in rats bearing 9L tumors
Assay type: in vivo, Fisher rats
cond: PET region-of-interest analysis, 9L tumors
Just the number.

Prompt line: Looking for the measured maximum tumor-to-muscle ratio of C[C@H](NC(=O)[C@@H](N)Cc1ccc(OCC[18F])cc1)C(=O)O [FET-Ala ([^18F]3)] , can you help?
Response line: 5

Prompt line: Same again, this time with N[C@@H](Cc1ccc(OCC[18F])cc1)C(=O)O [FET ([^18F]1), O-(2-[^18F]fluoroethyl)-L-tyrosine, reference compound]
Response line: 5

Prompt line: Same again, this time with N[C@@H](Cc1ccc(OCC[18F])cc1)C(=O)NCC(=O)O [FET-Gly ([^18F]2)]
Response line: 5

----------
experimentNotes: In vitro metabolism
Format: in vitro ADME, rat
cond: Fisher 344, rat, fresh heparinized rat whole blood
valueKind: half-life (min)
The figure you give is taken to be in min; do not add the unit.

Prompt line: Looking for the measured half-life of CC(=O)N[C@@H](Cc1ccc(OCC[18F])cc1)C(=O)O [AcFET ([^18F]4)] , can you help?
Response line: 77.5

Prompt line: Same again, this time with C[C@H](NC(=O)[C@@H](N)Cc1ccc(OCC[18F])cc1)C(=O)O [FET-Ala ([^18F]3)]
Response line: 5.8

----------
experimentNotes: In vitro metabolism
Format: in vitro ADME, human
cond: human, heparinized human whole blood
valueKind: half-life
Entry format: amount then unit.

Prompt line: Looking for the measured half-life of C[C@H](NC(=O)[C@@H](N)Cc1ccc(OCC[18F])cc1)C(=O)O [FET-Ala ([^18F]3)] , can you help?
Response line: 48 s

----------
Tested on: 9L tumors
experimentNotes: Dynamic small animal PET imaging in rats bearing 9L tumors
Assay type: in vivo, Fisher rats
cond: PET time-activity curves, result in words
valueKind: tumor uptake kinetics and retention

* N[C@@H](Cc1ccc(OCC[18F])cc1)C(=O)O [FET ([^18F]1), O-(2-[^18F]fluoroethyl)-L-tyrosine, reference compound] | long retention
* C[C@H](NC(=O)[C@@H](N)Cc1ccc(OCC[18F])cc1)C(=O)O [FET-Ala ([^18F]3)] | long retention
